System: CP260
methodNotes: qHTS profiling for inhibitors of Plasmodium falciparum proliferation (AID 504749); further: nearly all actives have a fitted effect of over 60% in size
experimentalConditions: P. falciparum in erythrocytes, SYBR Green DNA, 72 h; series mostly up to 28.7 µM
Records with an inconclusive call do not appear. Active and inactive are the calls of the source. The call rests on the fitted dose curve; in most records, active means well fitted inhibition curve with a large enough effect; inconclusive means small, poorly fitted or top-dose-only effect; inactive means flat fitted curve, though single readings scatter.
# output must be one of TRUE for active, FALSE for inactive

# compound, group
rows = [
    ("CC(=O)OCC(=O)NCCCOc1cccc(CN2CCCCC2)c1", "FALSE"),
]

What did the test return for `C[C@]12CC[C@@H]3c4ccc(O)cc4CC[C@H]3[C@@H]1CC[C@@H]2O` ?
FALSE

What did the test return for CCN(CC)CCOc1ccc(C(O)(Cc2ccc(Cl)cc2)c2ccc(C)cc2)cc1 (stereo unspecified) ?
TRUE

What did the test return for `C[C@@H]1C(=O)NC2=Nc3cccc(Cl)c3CN21` ?
FALSE

What did the test return for `C[C@@H]1CN(CCCn2c3ccccc3c3ccccc32)C[C@H](C)N1` ?
TRUE

What did the test return for `CC[N+](CC)(CCNC(=O)C(=O)NCC[N+](CC)(CC)Cc1ccccc1Cl)Cc1ccccc1Cl` ?
TRUE

###

Test system: CP329
methodNotes: qHTS profiling for inhibitors of Plasmodium falciparum proliferation (AID 504749); further: nearly all actives have a fitted effect of over 60% in size
experimentalConditions: P. falciparum in erythrocytes, SYBR Green DNA, 72 h; series mostly up to 28.7 µM
Procedure: NIH National Institute of Allergy and Infectious Diseases [NIAID] NIH Chemical Genomics Center [NCGC] […] Because mature erythrocytes lack DNA, only Plasmodium-derived DNA is detected. NCGC Assay Protocol Summary: The SYBR Green viability assay was adapted from a method described previously (Plouffe et al., 2008). […] The following morning, fluorescence intensity at 485(14) nm excitation and 535(25) nm emission wavelengths was measured on an EnVision (Perkin Elmer) plate reader. […]
Inconclusive results are not listed. The source made the active and inactive calls. The call rests on the fitted dose curve; in most records, active means well fitted inhibition curve with a large enough effect; inconclusive means small, poorly fitted or top-dose-only effect; inactive means flat fitted curve, though single readings scatter.
# output must be one of Yes = active, No = inactive

Below are worked cases with known answers.
# compound, group
data = [
    ("C[C@H]1[C@H](NC(=O)/C(=N/OC(C)(C)C(=O)O)c2csc(N)n2)C(=O)N1S(=O)(=O)O (stereo in doubt)", "No"),
    ("CCCCC(CC)CN=C(N)NC(N)=NCCCCCCN=C(N)NC(N)=NCC(CC)CCCC (stereo not given)", "Yes"),
    ("CCN1CCCC1=O", "No"),
]

What did the test return for `CC(C)(C(=O)c1cccnc1)c1cccnc1` ?
No

What did the test return for `CC(=O)Nc1c(I)cc(I)c(C(=O)O)c1I` ?
No

What did the test return for `Cc1cccn2c(=O)c(-c3nnn[nH]3)cnc12` ?
No

What did the test return for `CC(C)COC(=O)OCN1C(=O)CN(CCN2CC(=O)N(COC(=O)OCC(C)C)C(=O)C2)CC1=O` ?
No

What did the test return for `CCCCOc1cc(C(=O)NCCN(CC)CC)c2ccccc2n1` ?
No

What did the test return for `O=S1(=O)c2cccc3cccc(c23)N1CCCN1CCN(c2ccc(F)cc2)CC1` ?
No

What did the test return for `C[C@]12CC[C@@H]3c4ccc(O)cc4CC[C@H]3[C@@H]1CC[C@@H]2O` ?
No

What did the test return for O=C(CCN1CCC(c2ccccc2)C1)c1ccc2c(c1)OCCO2 (stereo not given) ?
No

What did the test return for `CCCCOc1ccc(C(=O)CCN2CCCCC2)cc1` ?
No

What did the test return for `O=c1ccc2ccccc2o1` ?
No

What did the test return for `Nc1ccc(/C=C/c2ccc(N)cc2S(=O)(=O)O)c(S(=O)(=O)O)c1` ?
No

What did the test return for `CN1CCN(CCCN2c3ccccc3Sc3ccc(S(=O)(=O)N(C)C)cc32)CC1` ?
No

What did the test return for `Oc1c(Cl)cc(Cl)cc1Sc1cc(Cl)cc(Cl)c1O` ?
No

What did the test return for `Cc1c(N(C)CS(=O)(=O)O)c(=O)n(-c2ccccc2)n1C` ?
No

What did the test return for `NCCc1ccn[nH]1` ?
No

What did the test return for `Oc1ccc(Cl)cc1Sc1cc(Cl)ccc1O` ?
No

What did the test return for `CC(=O)c1ccc2c(c1)N(CCCN1CCC(CCO)CC1)c1ccccc1S2` ?
No

What did the test return for `CC(O)(P(=O)(O)O)P(=O)(O)O` ?
No

What did the test return for CN1C2CCC1CC(OC(=O)c1c[nH]c3ccccc13)C2 (stereo not given) ?
No
